# pIC50 per entry
# Target System: 3',5'-cyclic-AMP phosphodiesterase 4B (Homo sapiens, UniProt Q07343)
# Sequence (Q07343 whole entry): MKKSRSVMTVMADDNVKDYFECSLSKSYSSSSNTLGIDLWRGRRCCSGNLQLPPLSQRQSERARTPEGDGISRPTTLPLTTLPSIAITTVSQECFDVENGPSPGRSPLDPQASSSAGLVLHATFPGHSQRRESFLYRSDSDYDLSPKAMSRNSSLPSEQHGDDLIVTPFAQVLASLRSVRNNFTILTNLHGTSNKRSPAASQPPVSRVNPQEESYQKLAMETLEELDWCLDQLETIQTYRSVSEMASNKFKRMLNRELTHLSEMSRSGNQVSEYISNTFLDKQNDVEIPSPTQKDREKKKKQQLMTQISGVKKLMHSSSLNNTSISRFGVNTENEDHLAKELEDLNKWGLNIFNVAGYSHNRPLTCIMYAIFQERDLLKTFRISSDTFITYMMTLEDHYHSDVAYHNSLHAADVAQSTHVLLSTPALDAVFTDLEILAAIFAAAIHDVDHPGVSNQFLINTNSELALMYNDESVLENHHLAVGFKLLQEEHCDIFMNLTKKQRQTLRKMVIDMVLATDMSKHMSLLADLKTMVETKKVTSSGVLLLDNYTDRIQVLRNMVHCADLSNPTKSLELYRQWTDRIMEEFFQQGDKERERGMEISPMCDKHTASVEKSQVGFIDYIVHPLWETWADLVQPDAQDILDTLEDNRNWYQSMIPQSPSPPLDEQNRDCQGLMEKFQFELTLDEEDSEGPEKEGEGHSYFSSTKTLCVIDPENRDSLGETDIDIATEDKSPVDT
# Assay Details: Inhibition of recombinant human PDE4B assessed as reduction of [3H]-cAMP hydrolysis preincubated for 5 mins followed by [3H]-cAMP addition measured after 20 mins by scintillation proximity assay
pIC50: −log10 of the molar value.

[
  {
    "Molecular String": "Cn1cc(-c2ccncc2)c(-c2ccc(OCc3cc(CCCF)c4ccccc4n3)cc2)n1",
    "pIC50": 6.42
  },
  {
    "Molecular String": "Cn1ncc(-c2ccncc2)c1-c1ccc(OCc2cc(NCCF)c3ccccc3n2)cc1",
    "pIC50": 5.80
  },
  {
    "Molecular String": "Cn1ncc(-c2ccncc2)c1-c1ccc(OCc2cc(OCCOCCF)c3ccccc3n2)cc1",
    "pIC50": 4.94
  },
  {
    "Molecular String": "Cn1ncc(-c2ccncc2)c1-c1ccc(OCc2cc(OCCF)c3ccccc3n2)cc1",
    "pIC50": 5.99
  },
  {
    "Molecular String": "Cn1ncc(-c2ccncc2)c1-c1ccc(OCc2cc(OCCOCCOCCOCCF)c3ccccc3n2)cc1",
    "pIC50": 5.76
  },
  {
    "Molecular String": "Cn1cc(-c2ccncc2)c(-c2ccc(OCc3cc(OCCOCCOCCF)c4ccccc4n3)cc2)n1",
    "pIC50": 5.80
  },
  {
    "Molecular String": "Cn1cc(-c2ccncc2)c(-c2ccc(OCc3cc(CF)c4ccccc4n3)cc2)n1",
    "pIC50": 5.42
  },
  {
    "Molecular String": "Cn1cc(-c2ccncc2)c(-c2ccc(OCc3cc(OCCF)c4ccccc4n3)cc2)n1",
    "pIC50": 5.75
  },
  {
    "Molecular String": "Cn1ncc(-c2ccncc2)c1-c1ccc(OCc2ccc3cc(F)ccc3n2)cc1",
    "pIC50": 6.12
  },
  {
    "Molecular String": "Cn1cc(-c2ccncc2)c(-c2ccc(OCc3ccc4cc(F)ccc4n3)cc2)n1",
    "pIC50": 5.59
  },
  {
    "Molecular String": "Cn1cc(-c2ccncc2)c(-c2ccc(OCc3cc(COCCF)c4ccccc4n3)cc2)n1",
    "pIC50": 5.75
  },
  {
    "Molecular String": "Cn1cc(-c2ccncc2)c(-c2ccc(OCc3nc4ccccc4cc3OCCF)cc2)n1",
    "pIC50": 5.98
  },
  {
    "Molecular String": "Cn1cc(-c2ccncc2)c(-c2ccc(OCc3cc(OCCOCCOCCOCCF)c4ccccc4n3)cc2)n1",
    "pIC50": 4.99
  },
  {
    "Molecular String": "Cn1cc(-c2ccncc2)c(-c2ccc(OCc3cc(OCCOCCF)c4ccccc4n3)cc2)n1",
    "pIC50": 6.05
  },
  {
    "Molecular String": "Cn1cc(-c2ccncc2)c(-c2ccc(OCc3cc(-n4cc(CCF)nn4)c4ccccc4n3)cc2)n1",
    "pIC50": 4.74
  },
  {
    "Molecular String": "Cn1ncc(-c2ccncc2)c1-c1ccc(OCc2cc(-n3cc(CCF)nn3)c3ccccc3n2)cc1",
    "pIC50": 6.05
  },
  {
    "Molecular String": "Cn1cc(-c2ccncc2)c(-c2ccc(OCc3cc(NCCF)c4ccccc4n3)cc2)n1",
    "pIC50": 5.32
  },
  {
    "Molecular String": "Cn1ncc(-c2ccncc2)c1-c1ccc(OCc2cc(COCCF)c3ccccc3n2)cc1",
    "pIC50": 5.37
  },
  {
    "Molecular String": "Cn1ncc(-c2ccncc2)c1-c1ccc(OCc2cc(OCCOCCOCCF)c3ccccc3n2)cc1",
    "pIC50": 5.14
  },
  {
    "Molecular String": "Cn1cc(-c2ccncc2)c(-c2ccc(OCc3cc(F)c4ccccc4n3)cc2)n1",
    "pIC50": 5.19
  }
]
